Biological target: T1, GST-Syntrophin gamma 1 PDZ domain 1 (Homo sapiens (Human)), Q9NSN8
T1 chain: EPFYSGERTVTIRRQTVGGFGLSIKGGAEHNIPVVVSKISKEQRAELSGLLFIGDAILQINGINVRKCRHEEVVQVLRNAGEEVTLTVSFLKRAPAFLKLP
Test: G' assay; also: key of the grades not given here
For each record, write down the corresponding Classification.

Data request: Any idea what Classification was measured for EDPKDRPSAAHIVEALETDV (modifications not checked) [PDZ-binding kinase (PBK)] ?
Data returned: 1 A450 class

Data request: Fill blank: measured Classification of the binder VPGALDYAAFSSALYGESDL (modifications not checked) [a-actinin 2] is ____.
Data returned: 1 A450 class

Data request: Classification lookup needed for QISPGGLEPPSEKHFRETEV (modifications not checked) [TAX] , thanks.
Data returned: 5 A450 class

Data request: Give its Classification value. Item: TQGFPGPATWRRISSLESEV (modifications not checked) [NMDA Glutamate Receptor 2C (cysteine-free)]
Data returned: 4 A450 class

Data request: Fill in: Classification of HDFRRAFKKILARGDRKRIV (modifications not checked) [alpha-2A Adrenergic receptor] is ___
Data returned: 2 A450 class

Data request: Fill blank: measured Classification of the binder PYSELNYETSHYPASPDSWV (modifications not checked) [catenin - delta 2] is ____.
Data returned: 1 A450 class

Data request: Could you tell me which Classification is on file for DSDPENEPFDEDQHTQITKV (modifications not checked) [PTEN] ?
Data returned: 1 A450 class

Data request: For the binder shown here, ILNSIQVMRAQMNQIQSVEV (modifications not checked) [ephrin B2] , give the reported Classification.
Data returned: 2 A450 class

FYI, the data here is from patent US20050282743A1.
